B1: library; numbered along this chain (parent)
chain: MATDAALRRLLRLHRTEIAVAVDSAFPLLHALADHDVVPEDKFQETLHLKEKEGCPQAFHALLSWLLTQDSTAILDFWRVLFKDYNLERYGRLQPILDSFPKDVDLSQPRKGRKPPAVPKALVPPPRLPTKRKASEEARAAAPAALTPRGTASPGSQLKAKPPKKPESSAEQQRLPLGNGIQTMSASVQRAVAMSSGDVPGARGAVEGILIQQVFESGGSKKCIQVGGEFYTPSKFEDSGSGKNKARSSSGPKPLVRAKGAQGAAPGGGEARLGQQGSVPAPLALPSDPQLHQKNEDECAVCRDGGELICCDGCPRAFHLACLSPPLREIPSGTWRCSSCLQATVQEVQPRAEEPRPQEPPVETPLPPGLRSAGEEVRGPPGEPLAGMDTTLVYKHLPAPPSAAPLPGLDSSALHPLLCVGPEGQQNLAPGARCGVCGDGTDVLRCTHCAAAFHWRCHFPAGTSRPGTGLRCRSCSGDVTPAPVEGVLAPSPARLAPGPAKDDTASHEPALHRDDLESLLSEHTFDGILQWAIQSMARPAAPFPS

variants of: B1; assay: AIRE transcriptional activation functional score (insulin promoter-GFP; nonsense median 0, synonymous median 1) (normalised score); higher = higher AIRE activity (more reporter activation); details: with insulin promoter-GFP reporter in HEK293
So basically: AIRE transcriptional activation functional score at 0.4 or higher? That is yes. Lower than 0.4? That is no.

Variant Name	Assigned Label
K52Y	no
T480Y	yes
L175E	no
R113H	yes
Q213F	no
S518C	yes
E40W	no
L106R	no
A386Y	yes
V123E	yes
F43P	yes
V38C	yes
V199M	yes
K165G	yes
K50A	no
E45A	no
D70V	no
H30Y	yes
Y231Q	yes
C299A	yes
D514H	yes
E522G	no
K243P	yes
V279A	yes
S324N	yes
L97E	no
S518A	yes
L47I	no
P430K	yes
V80H	no
A261S	yes
C475S	no
R336S	yes
K161G	yes
S464K	yes
